System: PHOX2B
Assay: 3' UTR reporter interaction score (median-centred robust z-score of log2 firefly/Renilla activity); higher = less repression of the 3' UTR reporter
Conditions: HEK293T; 48 h
Criterion: 3' UTR reporter interaction score meeting or surpassing -0.5. Met: 1. Not met: -1.

Qu. # bool: 3' UTR reporter interaction score of `CUACAAAGGGAAGCACUUUCUC` >= -0.5
Ans. 1

Qu. # bool: 3' UTR reporter interaction score of `UGGACGGAGAACUGAUAAGGGU` >= -0.5
Ans. -1

Qu. # bool: 3' UTR reporter interaction score of `GUUUGCACGGGUGGGCCUUGUCU` >= -0.5
Ans. 1

Qu. # bool: 3' UTR reporter interaction score of `UUCAAGUAAUCCAGGAUAGGC` >= -0.5
Ans. -1

Qu. # bool: 3' UTR reporter interaction score of `AAGCCUGCCCGGCUCCUCGGG` >= -0.5
Ans. 1

Qu. # bool: 3' UTR reporter interaction score of `UAUGGCUUUUUAUUCCUAUGUGA` >= -0.5
Ans. -1

Qu. # bool: 3' UTR reporter interaction score of `UCCCACGUUGUGGCCCAGCAG` >= -0.5
Ans. 1

Qu. # bool: 3' UTR reporter interaction score of `GUGCCGCCAUCUUUUGAGUGU` >= -0.5
Ans. -1

---

For each record, write down the corresponding 3' UTR reporter interaction score.
Test system: TP53
Experiment: 3' UTR reporter interaction score (median-centred robust z-score of log2 firefly/Renilla activity); higher = less repression of the 3' UTR reporter
Settings: HEK293T; 48 h
// return a plain number; no unit text

The recorded 3' UTR reporter interaction score for entry `UGAUUGGUACGUCUGUGGGUAGA` equals 0.443

The recorded 3' UTR reporter interaction score for entry `UGUGCAAAUCUAUGCAAAACUGA` equals 0.088

The recorded 3' UTR reporter interaction score for entry `AACGCACUUCCCUUUAGAGUGU` equals -0.139

The recorded 3' UTR reporter interaction score for entry `UCCAGCUCCUAUAUGAUGCCUUU` equals 0.0762

The recorded 3' UTR reporter interaction score for entry `AGACCUGGCCCAGACCUCAGC` equals 0.562

The recorded 3' UTR reporter interaction score for entry `AGCUACAUUGUCUGCUGGGUUUC` equals 0.277

The recorded 3' UTR reporter interaction score for entry `CGCAUCCCCUAGGGCAUUGGUGU` equals 0.263

The recorded 3' UTR reporter interaction score for entry `CGGGUGGAUCACGAUGCAAUUU` equals 0.809

The recorded 3' UTR reporter interaction score for entry `UGAGGUAGUAGAUUGUAUAGUU` equals -0.262

The recorded 3' UTR reporter interaction score for entry `ACUUACAGACAAGAGCCUUGCUC` equals 0.219

The recorded 3' UTR reporter interaction score for entry `AACAUUCAACCUGUCGGUGAGU` equals -0.761

The recorded 3' UTR reporter interaction score for entry `CAUCCCUUGCAUGGUGGAGGGU` equals 0.105

The recorded 3' UTR reporter interaction score for entry `UGGAAUGUAAGGAAGUGUGUGG` equals -1.12

The recorded 3' UTR reporter interaction score for entry `ACAAAGUGCUUCCCUUUAGAGUGU` equals -0.281

The recorded 3' UTR reporter interaction score for entry `UGAGAUGAAGCACUGUAGCUCA` equals -0.632

---

Test system: MYT1L
Test: 3' UTR reporter interaction score (median-centred robust z-score of log2 firefly/Renilla activity); higher = less repression of the 3' UTR reporter
Conditions: HEK293T; 48 h
# class assignment by measured 3' UTR reporter interaction score: label 0: < -0.4; label 1: ≥ -0.4 and < 0.5; label 2: ≥ 0.5

Qu. Each sequence maps to one class by 3' UTR reporter interaction score. Which class for `UGAGCUAAAUGUGUGCUGGGA` ?
Ans. label 2

Qu. Each sequence maps to one class by 3' UTR reporter interaction score. Which class for `UAAGGUGCAUCUAGUGCAGUUA` ?
Ans. label 1

Qu. Each sequence maps to one class by 3' UTR reporter interaction score. Which class for `UAACACUGUCUGGUAACGAUGU` ?
Ans. label 0

Qu. Each sequence maps to one class by 3' UTR reporter interaction score. Which class for `UACCCUGUAGAUCCGAAUUUGUG` ?
Ans. label 0

Qu. Each sequence maps to one class by 3' UTR reporter interaction score. Which class for `CUGGACUUAGGGUCAGAAGGCC` ?
Ans. label 2

Qu. Each sequence maps to one class by 3' UTR reporter interaction score. Which class for `CAAAGUGCCUCCCUUUAGAGUGU` ?
Ans. label 1

Qu. Each sequence maps to one class by 3' UTR reporter interaction score. Which class for `UAGCAGCACGUAAAUAUUGGCG` ?
Ans. label 1

Qu. Each sequence maps to one class by 3' UTR reporter interaction score. Which class for `AAGGAGCUCACAGUCUAUUGAG` ?
Ans. label 2

Qu. Each sequence maps to one class by 3' UTR reporter interaction score. Which class for `UCAGUGCAUCACAGAACUUUGU` ?
Ans. label 2

Qu. Each sequence maps to one class by 3' UTR reporter interaction score. Which class for `UGACAACUAUGGAUGAGCUCU` ?
Ans. label 2

Qu. Each sequence maps to one class by 3' UTR reporter interaction score. Which class for `UGAGGUAGUAGUUUGUGCUGU` ?
Ans. label 2

Qu. Each sequence maps to one class by 3' UTR reporter interaction score. Which class for `CAUGCCUUGAGUGUAGGACCGU` ?
Ans. label 0

Qu. Each sequence maps to one class by 3' UTR reporter interaction score. Which class for `UCAAAUGCUCAGACUCCUGU` ?
Ans. label 0

Qu. Each sequence maps to one class by 3' UTR reporter interaction score. Which class for `UGGUGCGGAGAGGGCCCACAGUG` ?
Ans. label 2

Qu. Each sequence maps to one class by 3' UTR reporter interaction score. Which class for `CAGUGCAAUGAUGAAAGGGCAU` ?
Ans. label 1

Qu. Each sequence maps to one class by 3' UTR reporter interaction score. Which class for `ACUUCACCUGGUCCACUAGCCGU` ?
Ans. label 2

Qu. Each sequence maps to one class by 3' UTR reporter interaction score. Which class for `UUGUGCUUGAUCUAACCAUGU` ?
Ans. label 1

Qu. Each sequence maps to one class by 3' UTR reporter interaction score. Which class for `AACCCGUAGAUCCGAACUUGUG` ?
Ans. label 1

Qu. Each sequence maps to one class by 3' UTR reporter interaction score. Which class for `CAUAAAGUAGAAAGCACUAC` ?
Ans. label 1

Qu. Each sequence maps to one class by 3' UTR reporter interaction score. Which class for `CAAAGUUUAAGAUCCUUGAAGU` ?
Ans. label 2

Qu. Each sequence maps to one class by 3' UTR reporter interaction score. Which class for `UGUCUUACUCCCUCAGGCACAU` ?
Ans. label 0

Qu. Each sequence maps to one class by 3' UTR reporter interaction score. Which class for `GAAAACAGCAAUUACCUUUGCA` ?
Ans. label 1

Qu. Each sequence maps to one class by 3' UTR reporter interaction score. Which class for `UAGCUUAUCAGACUGAUGUUGA` ?
Ans. label 1

Qu. Each sequence maps to one class by 3' UTR reporter interaction score. Which class for `UCGUACCGUGAGUAAUAAUGC` ?
Ans. label 0

Qu. Each sequence maps to one class by 3' UTR reporter interaction score. Which class for `GAGGUUGUCCGUGGUGAGUUCG` ?
Ans. label 1

Qu. Each sequence maps to one class by 3' UTR reporter interaction score. Which class for `UAAGUGCUUCCAUGUUUUAGUAG` ?
Ans. label 0

Qu. Each sequence maps to one class by 3' UTR reporter interaction score. Which class for `AGGCACCAGCCAGGCAUUGCUCAGC` ?
Ans. label 1

Qu. Each sequence maps to one class by 3' UTR reporter interaction score. Which class for `CCACUGCCCCAGGUGCUGCUGG` ?
Ans. label 2

Qu. Each sequence maps to one class by 3' UTR reporter interaction score. Which class for `UAUGCAUUGUAUUUUUAGGUCC` ?
Ans. label 0

Qu. Each sequence maps to one class by 3' UTR reporter interaction score. Which class for `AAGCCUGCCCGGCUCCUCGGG` ?
Ans. label 0

Qu. Each sequence maps to one class by 3' UTR reporter interaction score. Which class for `AGUGGGGAACCCUUCCAUGAGGA` ?
Ans. label 0

---

For each record, write down the corresponding 3' UTR reporter interaction score.
Tested on: FBXW7
Test: 3' UTR reporter interaction score (median-centred robust z-score of log2 firefly/Renilla activity); higher = less repression of the 3' UTR reporter
Details: HEK293T; 48 h
// return a plain number; no unit text

The recorded 3' UTR reporter interaction score for entry `UAACAGUCUACAGCCAUGGUCG` equals -0.629

The recorded 3' UTR reporter interaction score for entry `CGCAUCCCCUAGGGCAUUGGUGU` equals -0.0954

The recorded 3' UTR reporter interaction score for entry `UGUAAACAUCCUACACUCUCAGC` equals 0.711

The recorded 3' UTR reporter interaction score for entry `UUUCCAUAGGUGAUGAGUCAC` equals -0.836

The recorded 3' UTR reporter interaction score for entry `AAAGUGCUUCCUUUUAGAGGC` equals 0.555

The recorded 3' UTR reporter interaction score for entry `AGGCUGCGGAAUUCAGGAC` equals 0.871

The recorded 3' UTR reporter interaction score for entry `GAAGGCGCUUCCCUUUAGAGC` equals 0.412

The recorded 3' UTR reporter interaction score for entry `UAGCACCAUUUGAAAUCAGUGUU` equals -3.34

The recorded 3' UTR reporter interaction score for entry `GACACGGGCGACAGCUGCGGCCC` equals -0.302

The recorded 3' UTR reporter interaction score for entry `UAAUCUCAGCUGGCAACUGUG` equals -0.0147

The recorded 3' UTR reporter interaction score for entry `CUGGGAUCUCCGGGGUCUUGGUU` equals 0.0113

The recorded 3' UTR reporter interaction score for entry `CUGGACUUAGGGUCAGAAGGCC` equals -0.885

The recorded 3' UTR reporter interaction score for entry `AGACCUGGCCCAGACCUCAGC` equals 0.099

The recorded 3' UTR reporter interaction score for entry `UUACAGUUGUUCAACCAGUUACU` equals -1.36

The recorded 3' UTR reporter interaction score for entry `AGCUGUCUGAAAAUGUCUU` equals 0.675
